# Test system: RPMI 8226 (multiple myeloma) cells
# assayComment: MTT cell growth inhibition, multiple myeloma cells
# Assay type: cell-based, human
# conditionContext: Homo sapiens; RPMI 8226, 72 h, MTT; read-out: IC90
measuredEndpoint: IC90 (µg/mL)
Numbers only, in µg/mL.

                                   compound  valuereported
0  COc1ccc2cc1Oc1ccc(cc1)C[C@H]1c3cc(c(OC)cc3CCN1C)Oc1c(OS(=O)(=O)c3ccccc3)c(OC)cc3c1[C@H](C2)N(C)CC3 [BS-FC-104]            0.5
1  COc1ccc2cc1Oc1ccc(cc1)C[C@H]1c3cc(c(OC)cc3CCN1C)Oc1c(OC(=O)c3c(F)cccc3Cl)c(OC)cc3c1[C@H](C2)N(C)CC3 [BS-FC-315]           0.48
2  COc1cc(OC)cc(C(=O)Oc2c(OC)cc3c4c2Oc2cc5c(cc2OC)CCN(C)[C@H]5Cc2ccc(cc2)Oc2cc(ccc2OC)C[C@@H]4N(C)CC3)c1 [BS-FC-311]           0.49
3  COc1ccc2cc1Oc1ccc(cc1)C[C@H]1c3cc(c(OC)cc3CCN1C)Oc1c(OS(=O)(=O)c3ccc(C)cc3)c(OC)cc3c1[C@H](C2)N(C)CC3 [BS-FC-102]           0.77
4  COc1ccc2cc1Oc1ccc(cc1)C[C@H]1c3cc(c(OC)cc3CCN1C)Oc1c(OCc3cccc(F)c3F)c(OC)cc3c1[C@H](C2)N(C)CC3 [BS-FC-204]           1.58

Next, consider the following compound.
Write down the reported IC90 of COc1ccc2cc1Oc1ccc(cc1)C[C@H]1c3cc(c(OC)cc3CCN1C)Oc1c(OC(=O)C3CC3)c(OC)cc3c1[C@H](C2)N(C)CC3 [BS-FC-304] , test system: RPMI 8226 (multiple myeloma) cells.
0.98
